# Test system: Caco-2
# Assay remarks: cell viability relative to DMSO; higher = less toxic
# Recorded conditions: 72 h; 10000 nM
Listed here are molecules together with their documented cell viability.
Outcome measure: cell viability (%)

1) CNC(=O)c1cc(Oc2ccc(NC(=O)Nc3ccc(Cl)c(C(F)(F)F)c3)cc2)ccn1; 47.9
2) CCCCCCCCCCCCCCCCCCCCCCCCCCCCO; 95
3) Nc1ncnc2c1ncn2[C@@H]1O[C@H](C[C@@H](N)CC[C@H](N)C(=O)O)[C@@H](O)[C@H]1O; 106
4) N=C(N)S/C=C\C(=O)O; 106
5) CC(C)NCC(O)COc1cccc2ccccc12 (stereo not given); 100

---

# Tested on: Calu-3
# Assay remarks: cell viability relative to DMSO; higher = less toxic
# Recorded conditions: 72 h; 10 nM
Listed here are molecules together with their documented cell viability.
Outcome measure: cell viability (%)

1. Cn1c(=O)c2c(ncn2CCOC(=O)C(C)(C)Oc2ccc(Cl)cc2)n(C)c1=O [etofylline-clofibrate]; 98.9
2. O=c1[nH]cnc2c([C@@H]3N[C@H](CO)[C@@H](O)[C@H]3O)c[nH]c12; 89
3. Cc1cc(C)c(CNC(=O)c2cc(-c3ccc(N4CCN(C)CC4)nc3)cc3c2c(C)cn3C(C)C)c(=O)[nH]1; 85.3
4. Nc1nc(NCCNc2ncc(-n3ccnc3)c(-c3ccc(Cl)cc3Cl)n2)ccc1[N+](=O)[O-]; 98.1

---

# Tested on: Caco-2
# Assay remarks: relative viability EC50 (midpoint between 100% and the lowest measured viability); higher = less toxic
# Recorded conditions: 72 h
Outcome measure: relative viability EC50

1. CCCCn1c(-c2ccccc2)nc(-c2ccccc2)c1CN(Cc1ccc2c(c1)OCO2)Cc1ccc2c(c1)OCO2; > 10 µM
2. COc1ccccc1CN[C@H]1CCCN[C@H]1c1ccccc1; > 10 µM
3. Cn1c(=O)c2c(ncn2CCOC(=O)C(C)(C)Oc2ccc(Cl)cc2)n(C)c1=O [etofylline-clofibrate]; > 10 µM
4. C[C@H](N)C(=O)N[C@@]1(C(=O)O)C[C@@H](Sc2nnc[nH]2)[C@H]2[C@H](C(=O)O)[C@H]21; > 10 µM
5. CNC(=O)[C@H]1O[C@@H](n2cnc3c(NCc4cccc(I)c4)ncnc32)[C@H](O)[C@@H]1O [IB-MECA]; > 10 µM
6. Cc1cc(OCc2nnc(SC3CCCC3)n2-c2cccnc2)ccc1-c1ccc(S(C)(=O)=O)cc1 [NMS-873]; 1.64 µM
7. Cc1ccc2c(Br)cc(Br)c(OC(=O)c3ccccc3)c2n1 [broxaldine]; 2.44 µM
8. CC1CCc2c(N3CCC(O)CC3)c(F)cc3c(=O)c(C(=O)O)cn1c23 (stereo not drawn) [nadifloxacin]; > 10 µM
9. Cn1c(Nc2ccc(C(F)(F)F)cc2)nc2cc(Oc3ccnc(-c4ncc(C(F)(F)F)[nH]4)c3)ccc21 [RAF265]; 0.721 µM
10. CO/N=C(\C(=O)N[C@@H]1C(=O)N2C(C(=O)O)=C(CSc3nc(C)c(CC(=O)O)s3)CS[C@H]12)c1csc(N)n1 [cefodizime]; > 10 µM
11. COc1ccc2c(c1)c(CC(=O)N1CCOCC1)c(C)n2C(=O)c1ccc(Cl)cc1 [BML-190]; > 10 µM
12. O=C(c1ccc(CN2CCOCC2)cc1)N1CCN(C2CC2)CC1 [bavisant]; > 10 µM
13. O=C(/C=C/c1cccc(F)c1)NC1CC1 [cinflumide]; > 10 µM
14. OCCn1cc(-c2ccc3c(c2)CC/C3=N\O)c(-c2ccncc2)n1 [GDC-0879]; > 10 µM
15. C[n+]1c2cc(N)ccc2cc2ccc(N)cc21 [acriflavinium]; 0.594 µM
16. O=c1[nH]cnc2ccccc12 [4-HQN]; > 10 µM
17. Nc1ccn([C@H]2CO[C@@H](CO)S2)c(=O)n1 [apricitabine]; > 10 µM
18. CC1(C)S[C@@H]2[C@H](NC(=O)[C@H](NC(=O)N3CCNC3=O)c3ccccc3)C(=O)N2[C@H]1C(=O)O [azlocillin]; > 10 µM
